Target: acyl-CoA:cholesterol O-acyltransferase (ACAT) (Oryctolagus cuniculus)
Construct: The intestinal mucosa of a white rabbit was homogenized and microsomal fraction was obtained by stepwise centrifugation; from tissue; host or cells: intestinal mucosa of white rabbit, microsomal fraction
Sequence (G1SFD9 1-524): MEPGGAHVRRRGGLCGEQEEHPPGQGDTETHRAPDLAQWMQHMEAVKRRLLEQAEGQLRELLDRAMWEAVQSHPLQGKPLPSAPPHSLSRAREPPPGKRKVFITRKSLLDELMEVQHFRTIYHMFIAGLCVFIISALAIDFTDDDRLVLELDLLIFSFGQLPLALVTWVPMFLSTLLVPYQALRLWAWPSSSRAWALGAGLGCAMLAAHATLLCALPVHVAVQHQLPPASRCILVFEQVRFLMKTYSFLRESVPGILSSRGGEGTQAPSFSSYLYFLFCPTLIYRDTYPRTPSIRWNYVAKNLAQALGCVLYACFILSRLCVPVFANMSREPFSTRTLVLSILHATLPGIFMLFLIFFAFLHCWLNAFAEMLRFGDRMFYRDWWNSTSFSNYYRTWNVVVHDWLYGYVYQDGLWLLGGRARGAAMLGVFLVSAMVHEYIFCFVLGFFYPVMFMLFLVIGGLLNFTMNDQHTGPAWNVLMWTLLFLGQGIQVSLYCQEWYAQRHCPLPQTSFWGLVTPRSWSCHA
Assay: Inhibitory activity on acyl-CoA:cholesterol O-acyltransferase (ACAT), intestinal mucosa microsomal fraction, [1-14C]oleyl-CoA incorporation into cholesterol esters
Type: biochemical, white rabbit
Conditions: 0.01 μM; read-out: Inhibition rate %
readout: inhibition at 0.01 µM (%)

smiles structure | readout | test value
CCc1cccc(CC)c1NC(=O)Nc1sc2ccc(C(C)C)cc2c1-c1ccccc1Cl | inhibition at 0.01 µM | 71
CC(C)c1cccc(C(C)C)c1NC(=O)Nc1oc2ccc(Cl)cc2c1-c1ccccc1Cl | inhibition at 0.01 µM | 84.9
O=C(Nc1ccc(F)cc1F)Nc1sc2cc3c(cc2c1-c1ccccc1Cl)CCCC3 | inhibition at 0.01 µM | 90.1
O=C(Nc1sc2cc3c(cc2c1-c1ccccc1Cl)CCC3)Nc1c(F)cccc1F | inhibition at 0.01 µM | 69.7
